target: MAP kinase p38α (OH-p38α, non-phosphorylated) (human); assay: other, biochemical kinase assay
Sequence (chain, as listed by the source): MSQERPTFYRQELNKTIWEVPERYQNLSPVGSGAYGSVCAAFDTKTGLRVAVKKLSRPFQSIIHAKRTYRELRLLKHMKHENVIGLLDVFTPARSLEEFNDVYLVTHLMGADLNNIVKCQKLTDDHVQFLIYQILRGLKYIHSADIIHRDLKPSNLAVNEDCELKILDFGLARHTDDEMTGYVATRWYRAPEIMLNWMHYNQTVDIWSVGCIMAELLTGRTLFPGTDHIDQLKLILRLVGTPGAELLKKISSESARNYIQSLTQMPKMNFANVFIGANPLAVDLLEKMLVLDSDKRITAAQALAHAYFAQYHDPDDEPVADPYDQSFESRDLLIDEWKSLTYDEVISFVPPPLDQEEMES
pKi: −log10 of the molar value.
value_kind: pKi

[
  {
    "binder": "HKSRALLIFQKIMWLRRQ [BB2702]",
    "value_kind": "pKi",
    "recorded_result": 8.15
  }
]
